- system-tested: ERα (Homo sapiens, UniProt P03372)
- Construct: host or cells: MCF7
- procedure-summary: Estrogen receptor degradation activity: breast cancer cell ERα in cell western assay (MCF7 cells)
- Type: cell-based
- test-parameters: 0.3 μM, 4 hours, relative to fulvestrant 0.1 μM positive control
reported-metric: % Degradation At 0.3 μM (%)
Please give a number only; it is taken to be in %.

Study these solved cases before continuing.
smi: O=C(O)c1ccc2c(c1)CCCC(c1ccc(F)cc1C(F)(F)F)=C2c1ccc(C=C2CN(CCCF)C2)cc1
% Degradation At 0.3 μM (%): 94
--
smi: Cl.O=C(O)c1ccc2c(c1)CCCC(c1ccc(C(F)(F)F)cc1)=C2c1ccc(C=C2CN(CCCF)C2)cc1
% Degradation At 0.3 μM (%): 90
--
smi: COc1cc(C2=C(c3ccc(C=C4CN(CCCF)C4)cc3)c3ccc(C(=O)O)cc3CCC2)cc(C(F)(F)F)c1
% Degradation At 0.3 μM (%): 88

We now examine a further molecule.
(Q) Fill in the blank: the reported % Degradation At 0.3 μM of O=C(O)c1ccc2c(c1)CCCC(c1ccc(F)c(F)c1F)=C2c1ccc(C=C2CN(CCCF)C2)cc1 is ____.
(A) 96

====

- system-tested: ERα (Homo sapiens, UniProt P03372)
- Construct: host or cells: MCF7
- procedure-summary: Estrogen receptor degradation activity: breast cancer cell ERα in cell western assay (MCF7 cells)
- Format: cell-based
- test-parameters: 0.3 μM, 4 hours, relative to fulvestrant 0.1 μM positive control
reported-metric: % Degradation At 0.3 μM (%)
Please give a number only; it is taken to be in %.

smi: Cc1cc(F)ccc1C1=C(c2cc(F)c(C=C3CN(CCCF)C3)c(F)c2)c2ccc(C(=O)O)cc2CCC1
% Degradation At 0.3 μM / %: 89

smi: Cc1cc(C=C2CN(CCCF)C2)c(F)cc1C1=C(c2ccc(F)cc2F)CCCc2cc(C(=O)O)ccc21.Cl
% Degradation At 0.3 μM / %: 87

smi: Cc1cc(F)ccc1C1=C(c2ccc(C=C3CN(CCCF)C3)c(C#N)c2)c2ccc(C(=O)O)cc2CCC1
% Degradation At 0.3 μM / %: 94

smi: O=C(O)c1ccc2c(c1)CCCC([C@H]1[C@@H]3CCCC[C@@H]31)=C2c1ccc(C=C2CN(CCCF)C2)cc1
% Degradation At 0.3 μM / %: 86

smi: O=C(O)c1ccc2c(c1)CCCC(c1cccc3c1CCC3(F)F)=C2c1ccc(C=C2CN(CCC(F)F)C2)cc1
% Degradation At 0.3 μM / %: 93

smi: Cc1cc(F)ccc1C1=C(c2ccc(C=C3CN(CCCF)C3)c(C)c2F)c2ccc(C(=O)O)cc2CCC1
% Degradation At 0.3 μM / %: 99

We now examine a further compound.
(Q) GET /values?readout=% Degradation At 0.3 μM&system=ERα (Homo sapiens, UniProt P03372)&item= Cc1ccc(C(F)(F)F)cc1C1=C(c2ccc(C=C3CN(CCCF)C3)cc2)c2ccc(C(=O)O)cc2CCC1
(A) 92

====

- system-tested: ERα (Homo sapiens, UniProt P03372)
- Construct: host or cells: MCF7
- Sequence (P03372 1-595): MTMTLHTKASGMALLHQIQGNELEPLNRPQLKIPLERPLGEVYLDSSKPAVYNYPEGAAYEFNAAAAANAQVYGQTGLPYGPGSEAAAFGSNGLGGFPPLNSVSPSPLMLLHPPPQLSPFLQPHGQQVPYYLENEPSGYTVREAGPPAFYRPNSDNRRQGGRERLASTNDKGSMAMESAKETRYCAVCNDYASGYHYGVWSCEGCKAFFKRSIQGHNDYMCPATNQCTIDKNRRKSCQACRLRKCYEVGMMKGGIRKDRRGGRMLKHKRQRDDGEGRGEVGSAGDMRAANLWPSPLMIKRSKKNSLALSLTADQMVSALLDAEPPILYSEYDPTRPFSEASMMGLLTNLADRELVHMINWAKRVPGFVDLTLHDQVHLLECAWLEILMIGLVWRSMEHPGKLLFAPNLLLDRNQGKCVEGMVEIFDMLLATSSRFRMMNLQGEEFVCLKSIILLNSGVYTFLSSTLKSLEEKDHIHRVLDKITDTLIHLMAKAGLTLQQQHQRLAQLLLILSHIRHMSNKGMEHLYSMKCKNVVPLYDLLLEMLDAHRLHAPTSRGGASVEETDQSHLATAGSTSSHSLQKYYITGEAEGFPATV
- procedure-summary: Estrogen receptor degradation activity: breast cancer cell ERα in cell western assay (MCF7 cells)
- Assay type: cell-based
- test-parameters: 4 hours post compound addition, concentration which degrades 50% of the estrogen receptor, read-out: Degradation IC50
Recorded DC50 split into classes group A = under 0.3 nM, group B = from 0.3 nM up to 0.9 nM, group C = 0.9 nM and over

Below are worked cases with known answers.
smi: O=C(O)c1ccc2c(c1)CCCC(C1CCOCC1)=C2c1ccc(C=C2CN(CCCF)C2)cc1
qualitative-label: group C
--
smi: Cc1c(Cl)cccc1C1=C(c2ccc(C=C3CN(CCC(F)F)C3)cc2)c2ccc(C(=O)O)cc2CCC1
qualitative-label: group B
--
smi: Cc1cc(C=C2CN(CCCF)C2)cc(F)c1C1=C(c2ccc(F)cc2F)CCCc2cc(C(=O)O)ccc21
qualitative-label: group B
--
smi: Cc1c(C2=C(c3ccc(C=C4CN(CCC(F)F)C4)cc3)c3ccc(C(=O)O)cc3CCC2)cccc1C(F)(F)F
qualitative-label: group C
--
smi: O=C(O)c1ccc2c(c1)CCCC(c1ccc(Cl)c(C(F)(F)F)c1)=C2c1ccc(C=C2CN(CCCF)C2)cc1
qualitative-label: group C

(Q) Classify this compound: Cc1cc(F)ccc1C1=C(c2ccc(C=C3CN(CCCF)C3)c(F)c2C)c2ccc(C(=O)O)cc2CCC1
(A) group C

(Q) Classify this compound: O=C(O)c1ccc2c(c1)CCCC(c1ccc(F)cc1Cl)=C2c1ccc(C=C2CN(CCCF)C2)cc1
(A) group B

(Q) Classify this compound: Cc1cc(C2=C(c3ccc(F)cc3C)CCCc3cc(C(=O)O)ccc32)c(C)cc1C=C1CN(CCCF)C1
(A) group B

(Q) Classify this compound: O=C(O)c1ccc2c(c1)CCCC(c1ccc(F)cc1C(F)(F)F)=C2c1ccc(C=C2CN(CCCF)C2)cc1
(A) group A

(Q) Classify this compound: Cc1cc(C2CC2)ccc1C1=C(c2ccc(C=C3CN(CCCF)C3)cc2)c2ccc(C(=O)O)cc2CCC1
(A) group A

(Q) Classify this compound: O=C(O)c1ccc2c(c1)CCCC(c1cccc(C(F)(F)F)c1F)=C2c1ccc(C=C2CN(CCCF)C2)cc1
(A) group A
